Data provenance: patent US20220143021A1

# procedureText: CCK-8 viability (cytotoxicity) assay
# Assay type: cell-based
# conditionLabel: human, WPMY-1 cells (immortalized prostate stromal cells); 100 nM, 48 h; read-out: decrease of viability
observationType: cytotoxicity at 48 h, 100 nM (%)
Response body: numeric value in %, unit text excluded.

Exam item: Find the measured cytotoxicity at 48 h, 100 nM of CN1CCN(c2ccc(OC(F)(F)F)c(Nc3ncc4c(n3)-c3c(c(C(N)=O)nn3CCO)CC4)c2)CC1 [onvansertib] and report it.
Marked response: 86

---

# procedureText: CCK-8 viability (cytotoxicity) assay
# Assay type: cell-based
# conditionLabel: human, WPMY-1 cells (immortalized prostate stromal cells); 10 nM, 24 h; read-out: decrease of viability
observationType: cytotoxicity at 24 h, 10 nM (%)
Response body: numeric value in %, unit text excluded.

Exam item: Find the measured cytotoxicity at 24 h, 10 nM of `CN1CCN(c2ccc(OC(F)(F)F)c(Nc3ncc4c(n3)-c3c(c(C(N)=O)nn3CCO)CC4)c2)CC1` and report it.
Marked response: 15
